System: 4T1 cells
Assay: Cytotoxicity on 4T1 cells, LDH
Type: cell-based, murine
Conditions: Mus musculus; 4T1, LDH, 48 h; log of IC50 in μM; read-out: Mean LogIC50 (±SEM) (converted)
Binarize IC50 at 5 µM; below is criterion met, at or above is criterion not met.

Reference set (5 entries):
[
  {
    "compound": "CCC(=O)NC(Cc1ccc(O)cc1)C(=O)O[C@H]1CC[C@]2(C)C3CC[C@@]4(C)C(CC[C@@H]4C(C)CCCC(C)C)C3C[C@@H](NCCc3c[nH]cn3)[C@@]2(O)C1 (stereo partly drawn)",
    "measured target": "4T1 cells",
    "label value": "criterion met"
  },
  {
    "compound": "CC(C)CCCC(C)[C@H]1CCC2C3C[C@@H](NCCc4c[nH]cn4)[C@@]4(O)C[C@@H](OC(=O)NCCc5c[nH]cn5)CC[C@]4(C)C3CC[C@@]21C (stereo partly drawn)",
    "measured target": "4T1 cells",
    "label value": "criterion not met"
  },
  {
    "compound": "CCCCCC(=O)O[C@H]1CC[C@]2(C)[C@H]3CC[C@]4(C)[C@@H]([C@H](C)CCCC(C)C)CC[C@H]4[C@@H]3C[C@@H](NCCc3cnc[nH]3)[C@@]2(O)C1",
    "measured target": "4T1 cells",
    "label value": "criterion not met"
  },
  {
    "compound": "CCCCOC(=O)O[C@H]1CC[C@]2(C)[C@H]3CC[C@]4(C)[C@@H]([C@H](C)CCCC(C)C)CC[C@H]4[C@@H]3C[C@@H](NCCc3c[nH]cn3)[C@@]2(O)C1",
    "measured target": "4T1 cells",
    "label value": "criterion met"
  },
  {
    "compound": "CCOC(=O)O[C@H]1CC[C@]2(C)[C@H]3CC[C@]4(C)[C@@H]([C@H](C)CCCC(C)C)CC[C@H]4[C@@H]3C[C@@H](NCCc3c[nH]cn3)[C@@]2(O)C1",
    "measured target": "4T1 cells",
    "label value": "criterion met"
  }
]

Next compound, please.
I'd appreciate it if you could check whether `CCC(=O)O[C@H]1CC[C@]2(C)[C@H]3CC[C@]4(C)[C@@H]([C@H](C)CCCC(C)C)CC[C@H]4[C@@H]3C[C@@H](NCCc3c[nH]cn3)[C@@]2(O)C1` has IC50 smaller than 5 µM.
criterion met

====

Examples of compounds with documented IC50 follow.
Tested on: 4T1 cells
Assay: Cytotoxicity on 4T1 cells, MTT
Format: cell-based, murine
Details: Mus musculus; 4T1, MTT, 48 h; log of IC50 in μM; read-out: Mean LogIC50 (±SEM) (converted)
All answers are understood in µM, so give the number only.

[
  {
    "compound": "CCOC(=O)O[C@H]1CC[C@]2(C)[C@H]3CC[C@]4(C)[C@@H]([C@H](C)CCCC(C)C)CC[C@H]4[C@@H]3C[C@@H](NCCc3c[nH]cn3)[C@@]2(O)C1 [DX121]",
    "IC50 [µM]": 11
  },
  {
    "compound": "CCCCOC(=O)O[C@H]1CC[C@]2(C)[C@H]3CC[C@]4(C)[C@@H]([C@H](C)CCCC(C)C)CC[C@H]4[C@@H]3C[C@@H](NCCc3c[nH]cn3)[C@@]2(O)C1 [DX119]",
    "IC50 [µM]": 9.33
  },
  {
    "compound": "CC(C)CCCC(C)[C@H]1CCC2C3C[C@@H](NCCc4c[nH]cn4)[C@@]4(O)C[C@@H](OC(=O)NCCc5c[nH]cn5)CC[C@]4(C)C3CC[C@@]21C (stereo partly drawn) [DX117]",
    "IC50 [µM]": 11
  },
  {
    "compound": "CCC(=O)NC(Cc1ccc(O)cc1)C(=O)O[C@H]1CC[C@]2(C)C3CC[C@@]4(C)C(CC[C@@H]4C(C)CCCC(C)C)C3C[C@@H](NCCc3c[nH]cn3)[C@@]2(O)C1 (stereo partly drawn) [DX133]",
    "IC50 [µM]": 12.3
  },
  {
    "compound": "CCC(=O)O[C@H]1CC[C@]2(C)[C@H]3CC[C@]4(C)[C@@H]([C@H](C)CCCC(C)C)CC[C@H]4[C@@H]3C[C@@H](NCCc3c[nH]cn3)[C@@]2(O)C1 [DX107]",
    "IC50 [µM]": 3.8
  }
]

Now for a further compound.
Short answer for CCCCCC(=O)O[C@H]1CC[C@]2(C)[C@H]3CC[C@]4(C)[C@@H]([C@H](C)CCCC(C)C)CC[C@H]4[C@@H]3C[C@@H](NCCc3cnc[nH]3)[C@@]2(O)C1 [DX113] : IC50 was 18.2
